Measured values drawn from paper PMC8449414 for this set.

# maps each entry to its Ki
target: rEAAT1 (Rattus norvegicus); assay: Electrophysiology: SLC1 specificity, anion current in transfected HEK293 cells; conditions: 0 mV, 10 mM glutamate and 130 mM NaSCN internal, No current = no outward current up to highest concentration tested (§ 20-50, || 100-400, # 1500-2500 µM), read-out: Binding affinity Ki
Sequence (P24942 whole entry): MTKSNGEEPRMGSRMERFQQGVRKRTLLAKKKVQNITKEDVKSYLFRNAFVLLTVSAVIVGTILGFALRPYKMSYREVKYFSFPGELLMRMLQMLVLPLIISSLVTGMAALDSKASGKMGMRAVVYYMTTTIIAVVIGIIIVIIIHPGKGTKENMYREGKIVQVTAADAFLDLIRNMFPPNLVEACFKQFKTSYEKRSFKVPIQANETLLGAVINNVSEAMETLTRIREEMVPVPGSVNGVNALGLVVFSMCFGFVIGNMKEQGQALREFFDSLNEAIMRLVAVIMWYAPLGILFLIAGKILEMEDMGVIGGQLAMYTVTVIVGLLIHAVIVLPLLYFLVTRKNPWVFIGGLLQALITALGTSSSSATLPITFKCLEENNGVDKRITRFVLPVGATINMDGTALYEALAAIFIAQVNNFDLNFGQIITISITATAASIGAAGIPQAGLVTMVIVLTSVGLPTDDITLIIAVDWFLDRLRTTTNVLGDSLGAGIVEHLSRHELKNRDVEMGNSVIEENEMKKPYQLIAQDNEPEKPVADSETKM
# number then unit; no other words

The cases that follow already have their Ki on record.
>  <SMILES_NOTATION>
N[C@@H](COC(=O)c1ccc(NC(=O)c2ccccc2)cc1)C(=O)O

>  <Ki>
9.57 µM

$$$$
>  <SMILES_NOTATION>
O=C(O[C@@H]1CN[C@H](C(=O)O)C1)c1ccc(-c2ccc(C(F)(F)F)cc2)cc1

>  <Ki>
1 µM

$$$$
>  <SMILES_NOTATION>
Cc1ccccc1-c1ccc(C(=O)O[C@@H]2CN[C@H](C(=O)O)C2)cc1

>  <Ki>
1 µM

$$$$
>  <SMILES_NOTATION>
N[C@@H](COC(=O)c1ccccc1)C(=O)O

>  <Ki>
195 µM

$$$$

Now for the compound whose Ki we want.
The value of Ki recorded for `O=C(O[C@@H]1CN[C@H](C(=O)O)C1)c1ccc(Oc2ccccc2)cc1` when tested on rEAAT1 (Rattus norvegicus) reads 8.18 µM

====

target: hASCT2 (Homo sapiens, UniProt Q15758); assay: Glutamine transport assay in proteoliposomes reconstituted with purified hASCT2; conditions: in the presence of 5 µM glutamine; read-out: IC50, inhibition of glutamine uptake in proteoliposomes
Sequence (Q15758 whole entry): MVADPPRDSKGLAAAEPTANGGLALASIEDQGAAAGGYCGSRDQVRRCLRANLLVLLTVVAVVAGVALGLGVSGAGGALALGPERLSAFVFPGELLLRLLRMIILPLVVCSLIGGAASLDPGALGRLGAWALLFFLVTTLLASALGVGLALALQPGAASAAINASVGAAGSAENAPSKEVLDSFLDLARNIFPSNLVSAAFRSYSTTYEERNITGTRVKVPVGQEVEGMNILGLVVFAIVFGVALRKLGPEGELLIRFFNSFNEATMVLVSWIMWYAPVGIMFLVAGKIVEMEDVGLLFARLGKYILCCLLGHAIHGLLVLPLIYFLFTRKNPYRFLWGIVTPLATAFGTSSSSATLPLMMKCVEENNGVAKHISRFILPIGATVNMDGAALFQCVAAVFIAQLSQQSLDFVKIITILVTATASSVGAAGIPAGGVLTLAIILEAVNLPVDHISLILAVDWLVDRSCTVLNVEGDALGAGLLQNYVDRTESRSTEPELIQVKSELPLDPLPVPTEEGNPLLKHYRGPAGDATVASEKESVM
REPORTED_PROPERTY: pIC50
Scale for pIC50: -log10 of concentration given in mol/L; no unit attached.

>  <MOLECULE>
O=C(O[C@H]1CN[C@H](C(=O)O)C1)c1ccc(C(=O)c2ccccc2)cc1

>  <pIC50>
3.39

$$$$
>  <MOLECULE>
N[C@@H](COC(=O)c1ccc(NC(=O)c2ccccc2)cc1)C(=O)O

>  <pIC50>
4.25

$$$$

Consider now this further molecule.
# pIC50 of O=C(O[C@@H]1CN[C@H](C(=O)O)C1)c1ccc(-c2ccccc2)cc1 [Lc-BPE, L-cis hydroxyproline biphenyl ester] = 4.70

====

Measured Ki, listed per entry for reference.
Biological target: hASCT1 (Homo sapiens, UniProt P43007)
Sequence (P43007 1-532): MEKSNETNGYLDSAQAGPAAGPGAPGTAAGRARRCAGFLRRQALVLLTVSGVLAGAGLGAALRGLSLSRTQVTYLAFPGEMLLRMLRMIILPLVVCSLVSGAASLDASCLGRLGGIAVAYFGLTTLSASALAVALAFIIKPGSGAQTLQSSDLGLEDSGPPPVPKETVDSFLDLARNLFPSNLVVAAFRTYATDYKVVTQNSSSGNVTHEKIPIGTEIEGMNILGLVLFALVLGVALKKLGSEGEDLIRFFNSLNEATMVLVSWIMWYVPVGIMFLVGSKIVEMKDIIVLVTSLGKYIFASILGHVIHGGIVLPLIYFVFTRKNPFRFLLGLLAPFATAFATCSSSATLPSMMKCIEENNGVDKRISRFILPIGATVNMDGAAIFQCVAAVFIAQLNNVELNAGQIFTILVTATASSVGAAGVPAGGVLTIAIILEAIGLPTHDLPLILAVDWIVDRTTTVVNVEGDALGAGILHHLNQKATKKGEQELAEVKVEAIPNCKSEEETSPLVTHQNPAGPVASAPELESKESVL
Experiment: Electrophysiology: SLC1 specificity, anion current in transfected HEK293 cells
Settings: HEK293 cells, 0 mV, 10 mM alanine and 130 mM NaSCN internal; No current = no outward current up to highest concentration tested (§ 20-50, || 100-400, # 1500-2500 µM); read-out: Binding affinity Ki

// worked examples, Ki included
>  <COMPOUND>
N[C@@H](COC(=O)c1ccccc1)C(=O)O

>  <Ki>
170 µM

$$$$
>  <COMPOUND>
N[C@@H](COC(=O)c1cccnc1)C(=O)O

>  <Ki>
549 µM

$$$$
>  <COMPOUND>
O=C(O[C@@H]1CN[C@H](C(=O)O)C1)c1ccc(C(O)c2ccccc2)cc1 (some centres unmarked)

>  <Ki>
43 µM

$$$$
>  <COMPOUND>
O=C(O[C@@H]1CN[C@H](C(=O)O)C1)c1ccc(-c2ccc(F)cc2)cc1

>  <Ki>
0.9 µM

$$$$

Next compound, Ki to be filled in.
Lab entry: hASCT1 (Homo sapiens, UniProt P43007) assay, compound `O=C(O[C@@H]1CN[C@H](C(=O)O)C1)c1ccc(OCc2ccccc2)cc1` , Ki = > 100 µM
